# procedure details: Half life in cynomolgus monkey at 0.71 mg/kg, iv or 1.52 mg/kg, po
# Type: ADME, organism-based, Macaca fascicularis
# condition description: in vivo
quantity kind: half-life (h)
Answers are plain numbers, in h.

Noted for COC(=O)Nc1ccc2c(c1)NC(=O)[C@H](C)CCC[C@H](NC(=O)c1nnn(-c3cccc(Cl)c3F)c1C)c1cc-2ccn1.O=C(O)C(F)(F)F : its half-life reads 4

###

# assayed system: Vitamin K-dependent protein C (Homo sapiens, UniProt P04070)
# Sequence (P04070 43-197 limits assumed): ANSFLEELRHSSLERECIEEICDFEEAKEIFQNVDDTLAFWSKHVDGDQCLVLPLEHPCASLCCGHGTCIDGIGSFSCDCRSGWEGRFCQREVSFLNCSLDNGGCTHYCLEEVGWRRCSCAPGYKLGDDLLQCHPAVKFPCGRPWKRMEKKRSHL
# Sequence (P04070 212-461 limits assumed): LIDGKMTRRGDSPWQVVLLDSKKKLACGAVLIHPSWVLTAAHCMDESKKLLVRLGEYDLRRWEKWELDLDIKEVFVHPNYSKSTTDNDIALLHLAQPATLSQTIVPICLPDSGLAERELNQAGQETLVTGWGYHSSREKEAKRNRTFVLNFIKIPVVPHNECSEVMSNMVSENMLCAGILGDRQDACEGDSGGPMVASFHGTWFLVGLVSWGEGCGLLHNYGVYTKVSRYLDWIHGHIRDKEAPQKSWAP
# procedure details: Inhibition of activated human protein C using pyro-Glu-Pro-Arg-pNA as substrate by spectrophotometry
quantity kind: Ki

Noted for COC(=O)Nc1ccc2c(c1)NC(=O)[C@H](C)CCC[C@H](NC(=O)c1ncn(-c3cccc(Cl)c3F)c1C)c1cc-2ccn1.Cl.Cl : its Ki reads > 21.5 µM

###

# procedure details: AUC in rat at 1.40 mg/kg, po
# Type: ADME, organism-based
# condition description: in vivo, 1.4 mg/kg
I'd be grateful if you could share measured AUC for these entries.
Give bare numbers, in µM·h.

query_smiles=COC(=O)Nc1ccc2c(c1)NC(=O)[C@H](C)CCC[C@H](NC(=O)c1cnn(-c3cccc(Cl)c3F)c1)c1cc-2ccn1.O=C(O)C(F)(F)F assay_result=0.024

Let us move to another entry and its AUC.
Noted for COC(=O)Nc1ccc2c(c1)NC(=O)[C@H](C)CCC[C@H](NC(=O)c1cnn(-c3cccc(Cl)c3F)c1N)c1cc-2ccn1.O=C(O)C(F)(F)F.O=C(O)C(F)(F)F : its AUC reads 0.025

###

# procedure details: Volume of distribution at steady state in dog at 0.40 mg/kg, iv or 0.57 mg/kg, po
# Format: ADME, organism-based, Canis lupus familiaris
# condition description: in vivo, 0.4 mg/kg, read-out: Vdss
quantity kind: Vd (L/kg)
Answers are plain numbers, in L/kg.

Noted for COC(=O)Nc1ccc2c(c1)NC(=O)[C@H](C)CCC[C@H](NC(=O)c1cnn(-c3cccc(Cl)c3F)c1C)c1cc-2ccn1.O=C(O)C(F)(F)F : its Vd reads 4

###

# procedure details: AUC in cynomolgus monkey at 1.58 mg/kg, po
# Type: ADME, organism-based, Macaca fascicularis
# condition description: in vivo
quantity kind: AUC (µM·h)
Give bare numbers, in µM·h.

Noted for COC(=O)Nc1ccc2c(c1)NC(=O)[C@H](C)CCC[C@H](NC(=O)c1ncn(-c3cccc(Cl)c3F)c1C)c1cc-2ccn1.O=C(O)C(F)(F)F.O=C(O)C(F)(F)F : its AUC reads 0.509

###

# procedure details: Half life in cynomolgus monkey at 0.80 mg/kg, iv or 1.58 mg/kg, po
# Type: ADME, organism-based, Macaca fascicularis
# condition description: in vivo
quantity kind: half-life (h)
Numbers only, in h.

Noted for COC(=O)Nc1ccc2c(c1)NC(=O)[C@H](C)CCC[C@H](NC(=O)c1ncn(-c3cccc(Cl)c3F)c1C)c1cc-2ccn1.O=C(O)C(F)(F)F.O=C(O)C(F)(F)F : its half-life reads 3.7
